Cited source for all entries: patent US20240067747A1

Target system: T1, recombinant human CD73 protein (ACRO Biosystems, item No. CD3-H52H7) (human, UniProt P21589 27-547)
T1 construct: also called recombinant CD73 protein
T1 sequence (looked up): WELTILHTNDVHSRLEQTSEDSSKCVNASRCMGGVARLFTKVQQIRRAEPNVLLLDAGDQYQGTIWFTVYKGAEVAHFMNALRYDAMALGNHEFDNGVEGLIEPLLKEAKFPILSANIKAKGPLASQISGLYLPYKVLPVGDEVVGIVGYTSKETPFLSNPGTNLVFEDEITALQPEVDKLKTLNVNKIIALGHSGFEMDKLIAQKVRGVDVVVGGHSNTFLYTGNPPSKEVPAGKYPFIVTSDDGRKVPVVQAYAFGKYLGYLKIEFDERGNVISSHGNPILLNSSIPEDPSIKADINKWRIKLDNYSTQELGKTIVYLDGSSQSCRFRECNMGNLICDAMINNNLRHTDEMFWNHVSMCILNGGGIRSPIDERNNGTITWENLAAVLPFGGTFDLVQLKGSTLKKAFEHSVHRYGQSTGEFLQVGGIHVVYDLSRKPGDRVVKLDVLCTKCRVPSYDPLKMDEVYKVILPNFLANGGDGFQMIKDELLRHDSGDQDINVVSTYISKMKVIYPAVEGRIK
Assay explanation: SPR, Biacore T200, antibody captured on protein A chip, human CD73 as analyte, 1:1 model
Readout label: koff (s⁻¹)
Give a bare numeral; the unit s⁻¹ is implied.

Binder	Readout label	Numeric result
900728 (humanized anti-CD73 antigen-binding protein) (antibody, V domains shown) VH: QVQLVQSGAEVKKPGASVKVSCKASGYTFTSYWIHWVRQAPGQGLEWIGMIHPNSGSTYYNEKFQGRVTMTVDKSTSTAYMELSSLRSEDTAVYYCARYYGSDYEWYFDVWGQGTTVTVSS VL: DIQMTQSPSSLSASVGDRVTITCKASQNVRTAVVWYQQKPGKAPKALIYLASNRHTGVPDRFSGSGSGTDFTLTISSLQPEDFATYYCLQHWNYPYTFGQGTKLEIK	koff	0.000317
900726 (humanized anti-CD73 antigen-binding protein) (antibody, V domains shown) VH: QVQLVQSGAEVKKPGASVKLSCKASGYTFTSYWIHWVRQAPGQGLEWIGMIHPNSGSTYYNEKFKGRATLTVDKSTSTAYMELSSLRSEDTAVYYCARYYGSDYEWYFDVWGQGTTVTVSS VL: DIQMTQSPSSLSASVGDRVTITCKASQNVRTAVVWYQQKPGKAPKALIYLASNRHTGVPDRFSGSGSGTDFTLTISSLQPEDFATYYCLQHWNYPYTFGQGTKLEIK	koff	0.00124
900567 (human-mouse chimeric anti-CD73 antigen-binding protein expressed from 124A9 variable regions) (antibody, V domains shown) VH: QVQLQQPGAELVKPGASVKLSCKASGYTFTSYWIHWVKQRPGQGLDWIGMIHPNSGSTYYNEKFKSKATLTVDKSSSTAYMQLSSLTSEDSAVYYCARYYGSDYEWYFDVWGTGTTVTVSS VL: DIVMTQSQKFMSTSVGDRVSITCKASQNVRTAVVWYQQNPGQSPKALIYLASNRHTGVPDRFTGSGSGTDFTLTISNVHSEDLADYFCLQHWNYPYTFGGGTKLEIK	koff	0.00049

For the binder 900727 (humanized anti-CD73 antigen-binding protein) (antibody, V domains shown) VH: QVQLVQSGAEVKKPGASVKVSCKASGYTFTSYWIHWVRQAPGQGLEWIGMIHPNSGSTYYAQKFQGRVTITVDKSTSTAYMELSSLRSEDTAVYYCARYYGSDYEWYFDVWGQGTTVTVSS VL: DIQMTQSPSSMSASVGDRVTITCKASQNVRTAVVWYQQKPGKAPKALIYLASNRHTGVPDRFSGSGSGTDFTLTISSLQPEDFATYFCLQHWNYPYTFGQGTKLEIK , what koff is on record? 0.000494
